test system: Caco-2:HT29-MTX E12 coculture tubules (chip); test: In vitro drug absorption study, OrganoPlate chip coculture tubules, Papp by LC-MS; conditions: OrganoPlate Caco-2:HT29-MTX E12 6:1 coculture tubules, day 4, A-B, apical pH 6.5 / basolateral pH 7.4, 10 µM drug in 0.1% DMSO, 2 h, 37°C, constant flow, mean ± SEM, at least three biological replicates
Let's look at some compounds and their measured Chip Caco-2:HT29-MTX E12 Papp (apparent permeability coefficient from A B).

Solved cases below.
COMPOUND | SUBJECT OF TEST | RESULT
NC(=O)N1c2ccccc2C=Cc2ccccc21 [Carbamazepine] | Caco-2:HT29-MTX E12 coculture tubules (chip) | 140.04 ± 6.25 × 10-6 cm/sec
CC[C@H]1OC(=O)[C@H](C)[C@@H](O[C@H]2C[C@@](C)(OC)[C@@H](O)[C@H](C)O2)[C@H](C)[C@@H](O[C@@H]2O[C@H](C)C[C@H](N(C)C)[C@H]2O)[C@](C)(O)C[C@@H](C)C(=O)[C@H](C)[C@@H](O)[C@]1(C)O | Caco-2:HT29-MTX E12 coculture tubules (chip) | 0.99 ± 0.32 × 10^-6 cm/sec

The compound CC(C)NCC(O)COc1cccc2ccccc12 (stereo not drawn) showed Chip Caco-2:HT29-MTX E12 Papp (apparent permeability coefficient from A B) equal to 86.05 ± 21.67 × 10-6 cm/sec

For CC(C)(C)NCC(O)c1cc(O)cc(O)c1 (stereo not drawn) the compound record lists Chip Caco-2:HT29-MTX E12 Papp (apparent permeability coefficient from A B) as 5.09 ± 0.06 × 10-6 cm/sec

For record CC(=O)CC(c1ccccc1)c1c(O)c2ccccc2oc1=O (stereo not drawn) the listed Chip Caco-2:HT29-MTX E12 Papp (apparent permeability coefficient from A B) is 0.00030039 cm/s

----------
tested on: Caco-2 monolayers (Transwell); assay: Lucifer Yellow leakage after drug exposure, Transwell; settings: 100 µM LY co-applied, after 2 h of exposure to 10 µM drug, Caco-2 Transwell
Parameter Lucifer Yellow leakage (%) Transwell: see the listing below.
Provide the reading as a plain figure in %.

COMPOUND | Lucifer Yellow leakage (%) Transwell
CC(C)(C)NCC(O)c1cc(O)cc(O)c1 (stereo not drawn) [Terbutaline] | 0.02
NC(=O)N1c2ccccc2C=Cc2ccccc21 [Carbamazepine] | 0.02

Sure, the documented Lucifer Yellow leakage (%) Transwell for CC[C@H]1OC(=O)[C@H](C)[C@@H](O[C@H]2C[C@@](C)(OC)[C@@H](O)[C@H](C)O2)[C@H](C)[C@@H](O[C@@H]2O[C@H](C)C[C@H](N(C)C)[C@H]2O)[C@](C)(O)C[C@@H](C)C(=O)[C@H](C)[C@@H](O)[C@]1(C)O [Erythromicin] is 0.03

Lucifer Yellow leakage (%) Transwell reported for this compound CN/C(=N/CCSCc1nc[nH]c1C)NC#N [Cimetidine] : 0.03

Entry COCCc1ccc(OCC(O)CNC(C)C)cc1 (stereo not drawn) [Metoprolol] ; Lucifer Yellow leakage (%) Transwell = 0.02

compound CC(=O)CC(c1ccccc1)c1c(O)c2ccccc2oc1=O (stereo not drawn) [Warfarin] , Lucifer Yellow leakage (%) Transwell observed: 0.02

Field Lucifer Yellow leakage (%) Transwell (entry CNC(=C[N+](=O)[O-])NCCSCc1ccc(CN(C)C)o1 [Rantidine] ) reads 0.02

What the record says about CN(C)C(=O)C(CCN1CCC(O)(c2ccc(Cl)cc2)CC1)(c1ccccc1)c1ccccc1 [Loperamide] : Lucifer Yellow leakage (%) Transwell is 0.02

Field Lucifer Yellow leakage (%) Transwell (entry CC(C)NCC(O)COc1cccc2ccccc12 (stereo not drawn) [Propranolol] ) reads 0.02

----------
system: Caco-2:HT29-MTX E12 coculture tubules (chip); test: Lucifer Yellow leakage after drug exposure, chip coculture; details: 100 µM LY co-applied, after 2 h of exposure to 10 µM drug
Below, each of the compounds is paired with its reported Lucifer Yellow leakage (%) Chip Caco-2:HT29-MTX E12 value.
Answer in %, number only, no unit symbol.

Here is how some compounds turned out for Lucifer Yellow leakage (%) Chip Caco-2:HT29-MTX E12.
COMPOUND | U | QUANTITATIVE READOUT
NC(=O)N1c2ccccc2C=Cc2ccccc21 [Carbamazepine] | % | 0.01
CC(C)NCC(O)COc1cccc2ccccc12 (centres unmarked) | % | 0.03
CC(C)(C)NCC(O)c1cc(O)cc(O)c1 (centres unmarked) | % | 0.01
CNC(=C[N+](=O)[O-])NCCSCc1ccc(CN(C)C)o1 [Rantidine] | % | 0.01
COCCc1ccc(OCC(O)CNC(C)C)cc1 (centres unmarked) | % | 0.09
CN(C)C(=O)C(CCN1CCC(O)(c2ccc(Cl)cc2)CC1)(c1ccccc1)c1ccccc1 [Loperamide] | % | 0.02
CN/C(=N/CCSCc1nc[nH]c1C)NC#N | % | 0.02

Now look at this one.
Entry `CC[C@H]1OC(=O)[C@H](C)[C@@H](O[C@H]2C[C@@](C)(OC)[C@@H](O)[C@H](C)O2)[C@H](C)[C@@H](O[C@@H]2O[C@H](C)C[C@H](N(C)C)[C@H]2O)[C@](C)(O)C[C@@H](C)C(=O)[C@H](C)[C@@H](O)[C@]1(C)O` , Lucifer Yellow leakage (%) Chip Caco-2:HT29-MTX E12 reported as 0.01

----------
Recorded measurements of Chip Caco-2:HT29-MTX E12 Papp (apparent permeability coefficient from A B), one per entry
test system: Caco-2:HT29-MTX E12 coculture tubules (chip); experiment: In vitro drug absorption study, OrganoPlate chip coculture tubules, Papp by LC-MS; settings: OrganoPlate Caco-2:HT29-MTX E12 6:1 coculture tubules, day 4, A-B, apical pH 6.5 / basolateral pH 7.4, 10 µM drug in 0.1% DMSO, 2 h, 37°C, constant flow, mean ± SEM, at least three biological replicates

COMPOUND | SUBJECT OF TEST | RESULT
CN/C(=N/CCSCc1nc[nH]c1C)NC#N | Caco-2:HT29-MTX E12 coculture tubules (chip) | 11.87 ± 3.41 × 10^-6 cm/sec
CN(C)C(=O)C(CCN1CCC(O)(c2ccc(Cl)cc2)CC1)(c1ccccc1)c1ccccc1 [Loperamide] | Caco-2:HT29-MTX E12 coculture tubules (chip) | 2.75 ± 1.13 × 10^-6 cm/sec
COCCc1ccc(OCC(O)CNC(C)C)cc1 (stereo not shown) | Caco-2:HT29-MTX E12 coculture tubules (chip) | 44.99 ± 1.05 × 10-6 cm/sec

Attention now turns to another entry.
Notebook: CNC(=C[N+](=O)[O-])NCCSCc1ccc(CN(C)C)o1 [Rantidine] , Chip Caco-2:HT29-MTX E12 Papp (apparent permeability coefficient from A B) read as 2.29 ± 0.27 × 10^-6 cm/sec
